Values were extracted from ChEMBL document CHEMBL3217459.

- Test system: MCF7
- Test Summary: Cell cycle arrest in human MCF7 cells assessed as accumulation at G1 phase at 4 uM after 24 hrs using propidium iodide staining by FACS analysis (reference value: 70%)
- Type: functional
Metric: Activity
I'd appreciate it if you included the unit after the number.

{"Smiles Repr": "Cc1cc(C#Cc2ccccc2)ccc1-n1c(/C=C/c2ccc3ccccc3c2)nc2ccccc2c1=O", "Activity": "68%"}

Enquiry: Activity lookup needed for Cc1cc(C#Cc2ccccc2)ccc1-n1c(/C=C/c2ccc(O)cc2)nc2ccccc2c1=O , thanks.
Return: 75%

Enquiry: Activity lookup needed for Cc1cc(C#Cc2ccc(C(C)(C)C)cc2)ccc1-n1c(/C=C/c2ccc3c(c2)OCO3)nc2ccccc2c1=O , thanks.
Return: 67%

Enquiry: Activity lookup needed for COc1ccc(/C=C/c2nc3ccccc3c(=O)n2-c2ccc(C#Cc3ccc(C(C)(C)C)cc3)cc2C)cc1O , thanks.
Return: 91%

Enquiry: Activity lookup needed for Cc1cc(C#Cc2ccc(C(C)(C)C)cc2)ccc1-n1c(/C=C/c2c(Cl)cccc2Cl)nc2ccccc2c1=O , thanks.
Return: 93%

Enquiry: Activity lookup needed for Cc1cc(C#Cc2ccc(C(C)(C)C)cc2)ccc1-n1c(/C=C/c2ccc([N+](=O)[O-])s2)nc2ccccc2c1=O , thanks.
Return: 68%

Enquiry: Activity lookup needed for COc1ccc2cc(C#Cc3ccc(-n4c(/C=C/c5ccc(F)cc5)nc5ccccc5c4=O)c(C)c3)ccc2c1 , thanks.
Return: 74%

Enquiry: Activity lookup needed for COc1cc(/C=C/c2nc3ccccc3c(=O)n2-c2ccc(C#Cc3ccccc3)cc2C)cc(OC)c1OC , thanks.
Return: 90%

Enquiry: Activity lookup needed for COc1ccc(/C=C/c2nc3ccccc3c(=O)n2-c2ccc(C#Cc3ccccc3)cc2C)cc1 , thanks.
Return: 78%

Enquiry: Activity lookup needed for Cc1cc(C#Cc2ccc(C(C)(C)C)cc2)ccc1-n1c(/C=C/c2cc(O)cc(O)c2)nc2ccccc2c1=O , thanks.
Return: 74%

Enquiry: Activity lookup needed for COc1cc(/C=C/c2nc3ccccc3c(=O)n2-c2ccc(C#Cc3ccc(C(C)(C)C)cc3)cc2C)cc(OC)c1OC , thanks.
Return: 14%

Enquiry: Activity lookup needed for Cc1cc(C#Cc2ccccc2)ccc1-n1c(/C=C/c2ccc(Cl)cc2)nc2ccccc2c1=O , thanks.
Return: 75%

Enquiry: Activity lookup needed for COc1ccc(/C=C/c2nc3ccccc3c(=O)n2-c2ccc(C#Cc3ccc(C(C)(C)C)cc3)cc2C)cc1OC , thanks.
Return: 91%

Enquiry: Activity lookup needed for Cc1cc(C#Cc2ccc(C(C)(C)C)cc2)ccc1-n1c(/C=C/c2ccc([N+](=O)[O-])o2)nc2ccccc2c1=O , thanks.
Return: 77%

Enquiry: Activity lookup needed for Cc1cc(C#Cc2ccccc2)ccc1-n1c(/C=C/c2ccc(F)cc2)nc2ccccc2c1=O , thanks.
Return: 73%

Enquiry: Activity lookup needed for COc1cc(/C=C/c2nc3ccccc3c(=O)n2-c2ccc(C#Cc3ccccc3)cc2C)cc(OC)c1 , thanks.
Return: 73%

Enquiry: Activity lookup needed for COc1ccc2cc(C#Cc3ccc(-n4c(/C=C/c5ccc([N+](=O)[O-])o5)nc5ccccc5c4=O)c(C)c3)ccc2c1 , thanks.
Return: 49%

Enquiry: Activity lookup needed for Cc1ccccc1/C=C/c1nc2ccccc2c(=O)n1-c1ccc(C#Cc2ccccc2)cc1C , thanks.
Return: 88%

Enquiry: Activity lookup needed for COc1ccc2cc(C#Cc3ccc(-n4c(/C=C/c5c(Cl)cccc5Cl)nc5ccccc5c4=O)c(C)c3)ccc2c1 , thanks.
Return: 68%

Enquiry: Activity lookup needed for COc1ccc2cc(C#Cc3ccc(-n4c(/C=C/c5ccc6ccccc6c5)nc5ccccc5c4=O)c(C)c3)ccc2c1 , thanks.
Return: 69%
